Tested on: MDA-MB-468 breast
TEST METHOD NOTES: NCI-60 one-dose screen, 48 h (100 = growth as untreated, 0 = no growth, -100 = all killed)
TEST PARAMETERS: 10 µM unless noted
About 83,000 compounds went through this panel and 20% of them were active in at least one assay; those are over-represented in the sample as a whole. Calls of active or inactive are those of the source. Rule for the calls: active = growth percent below 10; inactive = the rest.
ASSAY METRIC: growth

q: Recall and state the measured growth for `CC1=NN(c2ccccc2Cl)C(=O)/C1=C\c1cn(S(=O)(=O)c2ccc(C)cc2)c2ccccc12` .
a: 119% (inactive)

q: Provide one value: measured growth of `O=C1/C(=C/c2ccc(C(F)(F)F)cc2)COc2ccc(O)cc21`
a: 100% (inactive)

q: # return recorded growth for input `C=CCN1C(=O)/C(=C\c2ccc3c(c2)CCC3)SC1=S`
a: 116% (inactive)

q: // fetch growth given entry `C=C1C(=O)O[C@H]2[C@H](O)[C@@H](C)CCC/C(C)=C/CC[C@@]3(C)O[C@@H]3C[C@@H]12`
a: 61.4% (inactive)

q: Please give measured growth of the following entry: `CC(=O)Nc1ccc(S(=O)(=O)NC2CCCCC2)cc1`
a: 93.9% (inactive)

====

Field: growth. Provide a value for each of the compounds that follow.
Test system: T-47D breast
TEST METHOD NOTES: NCI-60 one-dose screen, 48 h (100 = growth as untreated, 0 = no growth, -100 = all killed)
TEST PARAMETERS: 10 µM
This is part of a sample that, as a whole, favours compounds with a hit. Of some 83,000 tested, about 20% had one in any assay.
Report the figure in % without appending any unit label.

q: Supply growth value. Item: `Cc1ccc(-c2nc(C#N)c(S(=O)(=O)N3CCN(S(C)(=O)=O)CC3)o2)cc1`
a: -52.4

q: Determine from records and report growth for `C#C[C@]1(O)CC[C@H]2[C@@H]3CC=C4c5sc(Nc6ccc(C(F)(F)F)cn6)nc5CC[C@]4(C)[C@H]3CC[C@@]21C`
a: 8.97

q: Dear colleague, please send me the reported growth for CC1[C@H]2[C@H](C[C@H]3[C@@H]4CC=C5c6sc(Nc7cccc(Cl)n7)nc6CC[C@]5(C)[C@H]4CC[C@@]32C)O[C@]12CC[C@@H](C)CO2 (stereo partly specified) when you can.
a: 68

q: Tell me measured growth for O=C1NC2C=CC=CC2/C1=C1/SC(=S)N(C2CC(=O)N(c3ccc(Br)cc3)C2=O)C1=O (stereo unspecified) please.
a: 82.9

q: Let me know recorded growth for `O=C(CSc1nc2ccccc2c(=O)n1-c1ccc(Cl)cc1)Nc1ccc(-c2nc3ccc([N+](=O)[O-])cc3[nH]2)cc1` , thanks.
a: 6.69

q: State its growth: COc1ccc(C2c3sc4ccc(C)cc4c3Oc3nc[nH]c(=O)c32)cc1 (stereo unspecified)
a: 83.4

q: Quick one: give measured growth for `COc1ccc(OC)c(-n2cc(C#N)c(N)c2C(=O)c2ccc(Cl)cc2Cl)c1`
a: 42.6

q: Report growth for `O=C(c1ccc(F)cc1)C(c1c[nH]c2ccccc12)c1c[nH]c2ccccc12`
a: 63.9

q: Name the recorded growth of the item `CC1(C)CC(=O)C2=C(C1)N(Cc1ccc(C(=O)O)cc1)C1=C(C(=O)CC(C)(C)C1)C2c1ccc(Cl)cc1` in your answer.
a: 91.9

q: Give a short answer stating reported growth for Cc1ccc2sc3c(c2c1)Oc1nc[nH]c(=O)c1C3c1cccc(F)c1 (stereo unspecified) .
a: 83.9

q: Quote growth reported for `Cn1cc(/C=C(/SS/C(=C/c2cn(C)c3cccc(C(=O)O)c23)C(=O)O)C(=O)O)c2c(C(=O)O)cccc21` please.
a: 101

q: Indicate the recorded growth value for this compound: `Nc1nnc(-c2c[nH]c3ncc(Br)cc23)c(-c2c[nH]c3ccc(Br)cc23)n1`
a: 37.4

q: Look up and report measured growth for this entry: `C#C[C@]1(O)CC[C@H]2[C@@H]3CC=C4c5sc(Nc6ccc(N(C)C)cc6)nc5CC[C@]4(C)[C@H]3CC[C@@]21C`
a: 28.6

q: Look up and report measured growth for this entry: `O=C(Nc1ccc(Oc2ncnc3scc(Nc4n[nH]c(=S)s4)c23)cc1)C1(C(=O)Nc2cccc(C(F)(F)F)c2)CC1`
a: 86.7

q: Find the measured growth of `Cn1cc(-c2nnc(N)nc2-c2c[nH]c3ccc(F)cc23)c2cc(Br)cnc21` and report it.
a: 44.1

q: Note growth for the compound shown: `O=C1S/C(=C\c2ccc([N+](=O)[O-])cc2)C(=O)N1CCN1CCCCC1`
a: 95.6

q: Give recorded growth. `COc1cc(Nc2nc(O)c(/C=C3\C=Nc4ccccc43)s2)cc(OC)c1OC`
a: 2.48

q: Provide growth value for the following compound: `O=C(Nc1ccc(OCc2ccc(F)cc2)cc1)Nc1ccc(Cl)c(C(F)(F)F)c1`
a: 6.12

q: State its growth for this compound: `Cc1ccc2c(c1)C(=O)/C(=C/c1c[nH]c3ccccc13)S2`
a: 33.5

q: Read off the recorded growth for CCOC(=O)C1=C(N)N(c2ccc(C)cc2)C2=C(C(=O)CC(C)(C)C2)C1c1ccccc1Br (stereo unspecified)
a: 69.6

q: Identify growth associated with the compound `COc1ccc(-n2c(SCC(=O)NNS(=O)(=O)c3ccccc3)nc3ccc(Cl)cc3c2=O)cc1`
a: 94.8

q: Given `Cc1ccc(COc2ccc(NC(=O)Nc3ccc(Cl)c(C(F)(F)F)c3)cc2)cc1` , respond with its growth.
a: 33.7

q: Quote growth reported for `COc1cccc(C(=O)CSc2nc(-c3ccc(OCc4ccccc4)c(OC)c3)c(C#N)c(=O)[nH]2)c1` please.
a: 90.7

q: Return growth for the following compound: `O=C(Nc1ccc(OCC(=O)c2ccc(Cl)cc2)cc1)Nc1ccc(Cl)c(C(F)(F)F)c1`
a: 6.1

q: Give a short answer stating reported growth for `Fc1ccc(/C=C/c2nc3ccccc3n3c(-c4ccc(Cl)cc4)nnc23)cc1` .
a: 60.9

q: Using the record for CC1(C)CC[C@]2(C(=O)O)CC[C@]3(C)C(=CCC4[C@@]5(C)C[C@@H](O)[C@@H]6OC(c7cccc(F)c7)OC[C@@]6(C)C5CC[C@]43C)C2C1 (stereo partly specified) , state its measured growth.
a: 38.9

q: Could you please provide reported growth for `COc1cc2oc(-c3cccc(C(=O)Nc4ccc(Cl)cc4)c3)cc(=O)c2c(OCCN)c1OC` ? Thanks!
a: -73.8

q: Report growth for `Cc1cc(N=C2NC(=O)S/C2=C\c2ccc(F)cc2)n[nH]1`
a: 18.1

q: Return the recorded growth value; entry: `Cc1cc(N=C2NC(=O)/C(=C/c3cc(C(C)(C)C)c(O)c(C(C)(C)C)c3)S2)n[nH]1`
a: 3.32

q: Assign growth to the following record: `O=C(CC(=O)Nc1ccc(Oc2ncnc3scc(Nc4n[nH]c(=S)s4)c23)cc1)Nc1ccc(Br)cc1`
a: 86.3

q: Tell me growth reported for `O=C(CN1CCN(c2ncnc3c2cnn3-c2ccccc2)CC1)Nc1ccc(Br)cc1`
a: 41.6

q: Tell me its growth given `O=C(CN1CCN(c2ncnc3c2cnn3-c2ccccc2)CC1)Nc1ccc(Cl)cc1` as the entry.
a: 26.7

q: Look up and state reported growth for C#CCOc1cc(N(CC)CC)ccc1C(C(=O)NC(C)(C)C)N(C(=O)C1CCc2cc(F)ccc2O1)c1ccc(F)cc1F (stereo unspecified)
a: 37.4

q: Query growth for `COc1ccc(Cc2nn(CC(=O)N/N=C/c3ccc(Br)cc3)c(=O)c3c(C)noc23)cc1`
a: -1.9

q: Determine its reported growth: `Cn1cc(-c2nc(N)nnc2-c2c[nH]c3ccccc23)c2cc(Br)cnc21`
a: 65.2

q: Consider the compound `COc1ccc2[nH]cc(-c3nc(N)nnc3-c3cn(C)c4ncc(Br)cc34)c2c1` . State its measured growth.
a: 48.5

====

System: MDA-MB-468 breast
TEST METHOD NOTES: NCI-60 one-dose screen, 48 h
TEST PARAMETERS: 10 µM unless noted
The panel holds about 83,000 compounds, 20% with a hit somewhere; the sample as a whole holds those more often. The source made the active and inactive calls. The calls were made as follows: active = growth percent below 10; inactive = the rest.
Permitted responses: TRUE (active), FALSE (inactive)

q: Each molecule tested received a call. Report the one for `O=C1/C(=C/c2ccc(F)cc2)CN(C(=O)C(Cl)Cl)C/C1=C\c1ccc(F)cc1` .
a: TRUE

q: Assay outcome for `CC1=C(C)C(=O)C(Nc2cccc(C(F)(F)F)c2)=C(Cl)C1=O` : what was it?
a: TRUE

q: Fill in: this test's call for `Cc1ccc(-c2csc(NC(=O)CSc3nc(N)cc(N)n3)n2)cc1` is ___
a: FALSE

q: Please let me know the test result on file for `NC(=O)c1c(NC(=S)Nc2ccc(OC(F)(F)F)cc2)sc2c1CCC1(C2)OCCO1` .
a: FALSE

q: GET /call?item= `Cc1ccc(NC(=O)Nc2c(Cl)cccc2Cl)cn1` returns the recorded outcome of this test.
a: FALSE

q: Record lookup: outcome of this test for `CC(=O)Nc1ccc([I+]c2ccc([N+](=O)[O-])cc2)cc1` ?
a: FALSE

q: Given `COc1cc(OC)c(C(=O)C(CN(C)C)CN(C)C)cc1OC` , state the outcome it received in this test.
a: TRUE

q: Please let me know the test result on file for `COc1ccc(-c2ccc(C)n2-c2ccc(-c3nc4cc(Cl)ccc4s3)cc2)cc1` .
a: TRUE

q: Can you look up the reported call for `CC(C)N(CCOc1ccc(-c2nc3sccn3c2-c2ccnc(S(C)(=O)=O)n2)cc1)C(C)C` for me?
a: TRUE

q: I would be grateful if you could indicate the recorded call for `CCc1c(C)[nH]c(=O)c(C(N)=O)c1C#N` .
a: FALSE

q: What did the test return for C=C1CC[C@@H]2[C@](C)(COC(C)=O)[C@H](OC(C)=O)CC[C@@]2(C)[C@@H]1CC(NCc1ccccc1)C1=CCOC1=O (stereo partly specified) ?
a: FALSE

q: // param item: `COc1ccccc1/C=C1\Oc2cc(OCCN3CCC(Cc4ccccc4)CC3)ccc2C1=O` ; yields the recorded call
a: FALSE

q: Test call, this molecule: `COc1ccc(/C=C(/C(=O)N2CCN(c3ccccc3)CC2)c2cc(OC)c(OC)c(OC)c2)cc1N`
a: FALSE

q: Write down the call the test reported for this molecule. Item: `COc1cc(-c2nc3ccccc3o2)cc(CN2CCCCC2)c1O`
a: FALSE

q: Could you check what this test reported for `CN(C)CCCOc1ccccc1NC1=C(Cl)C(=O)C(Nc2ccccc2OCCCN(C)C)=C(Cl)C1=O` ?
a: TRUE

q: I would be grateful if you could indicate the recorded call for `COc1cc(CCC[P+](c2ccccc2)(c2ccccc2)c2ccccc2)cc2c1OCO2` .
a: TRUE

q: Given `Clc1ccc(CN2COc3c(ccc4cccnc34)C2)cc1Cl` , state the outcome it received in this test.
a: TRUE

q: Which outcome was assigned to `O=CNc1ccc2c(c1)Cc1cc([N+](=O)[O-])ccc1-2` in this test?
a: TRUE

q: Check the results log: what was the call for `C#CCOC(=O)[C@@H]1CCCN1CC#C` ?
a: FALSE

q: Please let me know the test result on file for `Cc1cc(O)cc(O)c1N=NC1=NCCS1` .
a: FALSE

q: Answer briefly: the call reported for `C=CCn1c(SCC(=O)Nc2ccc(C(=O)/C=C/c3cccc([N+](=O)[O-])c3)cc2)nnc1-c1c[nH]c2ccccc12` in this assay.
a: FALSE
